Parameter GI50: see the listing below.
Tested on: UACC-62
Assay: NCI tumour cell line growth inhibition, 48 h
The source made the active and inactive calls. Cut-off read from the data, not from the text of the source: active = GI50 up to about 1.1 µM and inactive = higher.
observation_type: GI50

1) CC(=O)C(=[N+]=[N-])C(=O)OC(C)(C)C#N = > 10 µM (inactive)
2) C[C@H]1S[C@H](c2c(Cl)cccc2Cl)N2Cc3ccccc3N=C12 = 9.82 µM (inactive)
3) C[N+](C)(C)CC(=O)N/N=c1\cc(C(=O)Nc2ccc(N=O)cc2C#N)oc2cc(O)ccc12 = > 100 µM (inactive)
4) CCOC(=O)C1=C(C)N(Cc2ccccc2)C2(O)C=CC(=O)C3C(=O)N(c4ccccc4)C(=O)C132 (centres undefined) = 1.71 µM (inactive)
5) O=C(N/N=C/c1cc(Cl)cc(Cl)c1O)c1ccccc1O = 0.323 µM (active)
6) COc1ccc(/C=C/[N+](=O)[O-])cc1 = 14.9 µM (inactive)
7) Cc1ccc(NC(=O)C(=O)C(C(=O)c2ccc3ccccc3c2)C2OC(=O)c3ccccc32)c(C)c1 (centres undefined) = 4.54 µM (inactive)
8) COc1ccc2c3c1OC1c4[nH]c5ccccc5c4CC4(O)C(C2)N(C)CCC314 (centres undefined) = 20.9 µM (inactive)
9) C=C[C@H]1CC[C@H]2[C@@H]3CC=C4C[C@@H](OC5OCC(O)C(O)C5O)CC[C@]4(C)[C@H]3CC[C@]12C (some centres undefined) = 15.5 µM (inactive)
